Data provenance is paper PMC6219668.

# Tested on: panel of nearly 500 cancer cell lines
# TEST_SUMMARY: Cancer Cell Line Encyclopedia profiling, 3-day CellTiter-Glo
# Format: cell-based
# EXPERIMENTAL_PARAMETERS: hct116 (large_intestine); read-out: IC50
pIC50: −log10 of the molar value.
RECORDED_ENDPOINT: pIC50

Asked: Please provide the recorded pIC50 for CC(=O)c1c(C)c2cnc(Nc3ccc(N4CCNCC4)cn3)nc2n(C2CCCC2)c1=O [Palbociblib] , tested on panel of nearly 500 cancer cell lines.
Given back: < 5.10

* * *

# System: panel of nearly 500 cancer cell lines
# TEST_SUMMARY: Cancer Cell Line Encyclopedia profiling, 3-day CellTiter-Glo
# Format: cell-based
# EXPERIMENTAL_PARAMETERS: Homo sapiens, HT-29
RECORDED_ENDPOINT: IC50
Could you give the number and then its unit, please?

Asked: Recall the recorded IC50 for CN(C)C(=O)c1cc2cnc(Nc3ccc(N4CCNCC4)cn3)nc2n1C1CCCC1 with panel of nearly 500 cancer cell lines and state it.
Given back: 5.83 µM

* * *

# Test system: panel of nearly 500 cancer cell lines
# TEST_SUMMARY: Cancer Cell Line Encyclopedia profiling, 3-day CellTiter-Glo
# Assay type: cell-based
# EXPERIMENTAL_PARAMETERS: a204 (soft_tissue); read-out: IC50
RECORDED_ENDPOINT: IC50

Asked: Would you kindly share the measured IC50 for CC(=O)c1c(C)c2cnc(Nc3ccc(N4CCNCC4)cn3)nc2n(C2CCCC2)c1=O ?
Given back: > 8 µM

* * *

# System: panel of nearly 500 cancer cell lines
# TEST_SUMMARY: Cancer Cell Line Encyclopedia profiling, 3-day CellTiter-Glo
# Type: cell-based
# EXPERIMENTAL_PARAMETERS: Homo sapiens, SW48
RECORDED_ENDPOINT: EC50 (nM)
Give the value, in units of nM, as a plain number.

Asked: # EC50 lookup, item CN(C)C(=O)c1cc2cnc(Nc3ccc(N4CCNCC4)cn3)nc2n1C1CCCC1
Given back: 19.4

* * *

# Test system: panel of nearly 500 cancer cell lines
# TEST_SUMMARY: Cancer Cell Line Encyclopedia profiling, 3-day CellTiter-Glo
# Format: cell-based
# EXPERIMENTAL_PARAMETERS: Homo sapiens, SNU-475
pIC50: −log10 of the molar value.
RECORDED_ENDPOINT: pIC50

Asked: Requested field: pIC50. Item: CN(C)C(=O)c1cc2cnc(Nc3ccc(N4CCNCC4)cn3)nc2n1C1CCCC1
Given back: < 5.10

* * *

Reported pEC50 values for the following compounds.
# Test system: panel of nearly 500 cancer cell lines
# TEST_SUMMARY: Cancer Cell Line Encyclopedia profiling, 3-day CellTiter-Glo
# Format: cell-based
# EXPERIMENTAL_PARAMETERS: Homo sapiens, NCI-H647
pEC50: −log10 of the molar value.

CC(=O)c1c(C)c2cnc(Nc3ccc(N4CCNCC4)cn3)nc2n(C2CCCC2)c1=O [Palbociclib, reference compound] ... < 5.10

Kindly consider the entry below.
Asked: Test system panel of nearly 500 cancer cell lines; read-out pEC50; what value for CN(C)C(=O)c1cc2cnc(Nc3ccc(N4CCNCC4)cn3)nc2n1C1CCCC1 [Ribociclib] ?
Given back: < 5.10
